Origin of the recorded values: paper PMC11169341

# TARGET OF ASSAY: T1, recombinant human B7-H3 His-tag (R&D 1949-B3-050) (Homo sapiens, UniProt Q5ZPR3-2 29-245)
# T1 sequence: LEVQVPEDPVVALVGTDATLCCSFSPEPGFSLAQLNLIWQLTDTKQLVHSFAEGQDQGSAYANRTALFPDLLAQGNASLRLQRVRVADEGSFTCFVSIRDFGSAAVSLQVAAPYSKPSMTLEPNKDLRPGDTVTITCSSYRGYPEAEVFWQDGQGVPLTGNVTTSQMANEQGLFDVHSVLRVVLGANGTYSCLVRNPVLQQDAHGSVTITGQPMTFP
# EXPERIMENT SUMMARY: dot blot; FITC aptamer, 10 ng protein on membrane; ABB: AWB (composition not given) + 0.1 mg/ml yeast tRNA, 0.1 mg/ml salmon sperm DNA, 5% FBS, 1 mg/ml BSA; 60 min; 0-500 nM aptamer; flow binding assay on ice, dot-blot temperature and pH not stated
# REPORTED CONDITIONS: protein: commercial; tags: C-terminal His; label: FITC or biotin
MEASURED METRIC: Kd (nM)

>>> df
                                     binder  measured_metric  reported
0  VRF-HS_B7H3-04 (ssDNA) DNA: TAGGGAAGAGAAGGACATATGATTGCCCCTGACACTTACACGCCACTATCAAGGCACACGCCATTGACTAGTACATGACCACTT               Kd      31.5
1  VRF-HS_B7H3-01 (ssDNA) DNA: TAGGGAAGAGAAGGACATATGATACAGCACGGTATGACGAGTCCATTGTGTGTGCAGCTCGCTAATTGACTAGTACATGACCACTT               Kd      19.2
2  VRF-HS_B7H3-05 (ssDNA) DNA: TAGGGAAGAGAAGGACATATGATTGAGAAGTCACGCCACTTACCTGCGCTCAAAACCTCAGAATTGACTAGTACATGACCACTT               Kd      32.7
3  VRF-HS_B7H3-03 (ssDNA) DNA: TAGGGAAGAGAAGGACATATGATATAAGTGACACATCAATCTCATGCGGATGAACCAGTGCGTTTGACTAGTACATGACCACTT               Kd      22.7
4  VRF-HS_B7H3-02 (ssDNA) DNA: TAGGGAAGAGAAGGACATATGATCGCCCCTCTTTTCGATTTCAAGCTCCTAACCCACACCTCTTTGACTAGTACATGACCACTT               Kd      24.6
